target: Human OTUB1 wild-type (Homo sapiens); construct: His tag (N); made in house; host or cells: E. coli BL21-CodonPlus (DE3)-RIPIL; assay: Covalent modification of OTUB1 (adduct formation), mass spectrometry-based assay (OTUB1 covalent binders; selected CFTR or cGAS based bivalent compounds); format: binding; conditions: covalent adduct formation with OTUB1 protein
Sequence (Q96FW1 whole entry): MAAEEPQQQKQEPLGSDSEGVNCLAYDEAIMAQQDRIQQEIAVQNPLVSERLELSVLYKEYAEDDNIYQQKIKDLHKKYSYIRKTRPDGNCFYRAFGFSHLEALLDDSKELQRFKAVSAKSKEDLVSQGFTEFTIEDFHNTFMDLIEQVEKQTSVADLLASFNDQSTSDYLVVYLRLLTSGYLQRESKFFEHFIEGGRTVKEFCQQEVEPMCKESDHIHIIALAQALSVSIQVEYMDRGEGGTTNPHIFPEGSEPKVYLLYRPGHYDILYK
Would you please tag the item Met when its % of OTUB1 modified is 60% or above, and Not met when it is below?

{"COMPOUND": "C=CC(=O)N1CCN(c2ncc(C)s2)C(=O)C1", "EXPERIMENTAL SYSTEM": "Human OTUB1 wild-type (Homo sapiens)", "QUALITATIVE LABEL": "Not met"}
{"COMPOUND": "CN(C)C/C=C/C(=O)N1C2CCC1C(=O)N(c1ccc(-c3ccccc3)s1)C2 (stereo not drawn)", "EXPERIMENTAL SYSTEM": "Human OTUB1 wild-type (Homo sapiens)", "QUALITATIVE LABEL": "Met"}
{"COMPOUND": "Cc1ccc(C(=O)N2CC(NC(=O)/C=C/CN(C)C)C2)s1", "EXPERIMENTAL SYSTEM": "Human OTUB1 wild-type (Homo sapiens)", "QUALITATIVE LABEL": "Not met"}
{"COMPOUND": "CC(=O)N1CC2CC(C1)N2C(=O)/C=C/CN(C)C", "EXPERIMENTAL SYSTEM": "Human OTUB1 wild-type (Homo sapiens)", "QUALITATIVE LABEL": "Met"}
{"COMPOUND": "Cc1ccc(NC(=O)C2CC3(C2)CN(C(=O)/C=C/CN(C)C)C3)s1", "EXPERIMENTAL SYSTEM": "Human OTUB1 wild-type (Homo sapiens)", "QUALITATIVE LABEL": "Not met"}
{"COMPOUND": "C=CC(=O)N1CC2CCC(C1)N2c1cccc(C)c1", "EXPERIMENTAL SYSTEM": "Human OTUB1 wild-type (Homo sapiens)", "QUALITATIVE LABEL": "Not met"}
{"COMPOUND": "CN(C)C/C=C/C(=O)N1CC2(CCN(c3cc4ccccc4s3)CC2)C1", "EXPERIMENTAL SYSTEM": "Human OTUB1 wild-type (Homo sapiens)", "QUALITATIVE LABEL": "Not met"}
{"COMPOUND": "CC(=O)N1CCC(c2ccc(N3CC4CCC(C3=O)N4C(=O)/C=C/CN(C)C)s2)CC1 (stereo not drawn)", "EXPERIMENTAL SYSTEM": "Human OTUB1 wild-type (Homo sapiens)", "QUALITATIVE LABEL": "Met"}
{"COMPOUND": "CCC(=O)N1CC2CC(C1)N2C(=O)/C=C/CN(C)C", "EXPERIMENTAL SYSTEM": "Human OTUB1 wild-type (Homo sapiens)", "QUALITATIVE LABEL": "Not met"}
{"COMPOUND": "Cc1cccc(N2CCN(C(=O)CCl)CC2=O)n1", "EXPERIMENTAL SYSTEM": "Human OTUB1 wild-type (Homo sapiens)", "QUALITATIVE LABEL": "Met"}
{"COMPOUND": "Cc1ccc(C(=O)N2C[C@H]3C[C@@H]2CN3C(=O)/C=C/CN(C)C)s1", "EXPERIMENTAL SYSTEM": "Human OTUB1 wild-type (Homo sapiens)", "QUALITATIVE LABEL": "Not met"}
{"COMPOUND": "C=CC(=O)N1CCN(c2cnc(C)s2)C(=O)C1", "EXPERIMENTAL SYSTEM": "Human OTUB1 wild-type (Homo sapiens)", "QUALITATIVE LABEL": "Not met"}
{"COMPOUND": "CN(C)C/C=C/C(=O)N1C2CC1CN(C(=O)c1ccc(C3CCN(C)C3)s1)C2 (stereo not drawn)", "EXPERIMENTAL SYSTEM": "Human OTUB1 wild-type (Homo sapiens)", "QUALITATIVE LABEL": "Met"}
